targetUnderTest: T1, Plasmodium falciparum histidine-rich protein II (HRP-II) (Plasmodium falciparum, UniProt P05227 22-332)
T1 construct: Coating antigen of all ELISAs; also called HRP-II protein; MA-HRPII Ag protein
T1 sequence (looked up): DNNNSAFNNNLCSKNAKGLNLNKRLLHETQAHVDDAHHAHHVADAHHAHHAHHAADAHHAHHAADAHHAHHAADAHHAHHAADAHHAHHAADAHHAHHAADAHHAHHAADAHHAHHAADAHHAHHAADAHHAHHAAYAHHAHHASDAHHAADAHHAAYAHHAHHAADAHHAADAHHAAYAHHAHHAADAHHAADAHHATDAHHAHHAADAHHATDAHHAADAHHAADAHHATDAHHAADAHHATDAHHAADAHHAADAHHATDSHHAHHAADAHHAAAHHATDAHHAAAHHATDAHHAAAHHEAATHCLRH
experimentDescription: indirect ELISA, four antigen coating concentrations;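 also: optical density read across an antibody dilution series at each antigen coating level, curves plotted on log scale, KD derived as reciprocal of the averaged constant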
measurementKind: Kd
Answer format: number, then unit.

Mutation 1-1 (antibody, mouse IgG2b, kappa, V domains shown, Mutation 1 as framework) VH: EVQLQQSGPEVVKPGASVKISCKASGYTITDYYMNWVKQSHGKGLEWIGDINPIQGGTAYNQKFRDKATLTVDKSSNTAYMELRSLTSEDSALYYCTRGAEDYWGQGTTLTVSS VL: DVVLTQTPLSLSVTIGQPASISCKSSQSIIYSQGKIYLNWFQQRPGQSPKRLMYQISKLEPGIPDRFSGSGSETDFTLKISRVEAEDLGVYYCLQGTYYPQTFGGGTKLEIKR : 301 pM

Moving on to another binder below.
I would be grateful if you could share the reported Kd for Mutation 1-47 (antibody, mouse IgG2b, kappa, V domains shown, Mutation 1 as framework) VH: EVQLQQSGPEVVKPGASVKISCKASGSTITDYYMNWVKQSHGKGLEWIGDVNPINGGTAYNQKFRDKATLTVDKSSNTAYMELRSLTSEDSALYYCTKGAEDYWGQGTTLTVSS VL: DVVLTQTPLSLSVTIGQPASISCKSSQSILYSQGKIYLNWFQQRPGQSPKRLMYQVSKLEPGIPDRFSGSGSETDFTLKISRVEAEDLGVYYCLQATYSPQTFGGGTKLEIKR .
82.8 pM

Reference for the values: patent US20220002395A1
